- assay_remarks: Rectal circulation: Cephalothin disappeared by absorption (Examples 10-14, 16-18)
- condition_label: rat, in vivo
- Method: The experiments were conducted similarly as in Example 1. […] Each sample was diluted and the quantity of Cephalothin disappeared was determined by UV-spectrophotometer of high-speed liquid chromatography.
measured_metric: Cephalothin disappeared by absorption, Osmotic pressure X 4

{"columns": ["molecule", "measured_value"],
 "data": [
  ["O=S(=O)(O)c1cc(O)c(O)c(S(=O)(=O)O)c1 [DHBDS, 1,2-dihydroxybenzene-3,5-disulfonic acid]", "22.0 percents"],
  ["O=P(O)(O)OC[C@H]1O[C@](O)(COP(=O)(O)O)[C@@H](O)[C@@H]1O [Fructose-1,6-diphosphoric acid]", "13.3 percents"],
  ["O=C[C@H](O)[C@@H](O)[C@H](O)[C@H](O)C(=O)O [Glucronic acid, glucuronic acid]", "16.4 percents"],
  ["O=C(O)CNc1ccccc1 [N--phenylglycine, N-phenylglycine]", "30.8 percents"]
]}

----------
- assay_remarks: Rectal circulation: Cephalothin disappeared by absorption (Examples 10-14, 16-18)
- condition_label: rat, in vivo
# Cephalothin disappeared by absorption, Osmotic pressure X 1 annotations
measured_metric: Cephalothin disappeared by absorption, Osmotic pressure X 1

{"columns": ["compound", "measured_value"],
 "data": [
  ["O=P(O)(O)CN(CCN(CP(=O)(O)O)CP(=O)(O)O)CP(=O)(O)O [EDTPO]", "7.6 percents"],
  ["O=P(O)(O)OC[C@H]1O[C@](O)(COP(=O)(O)O)[C@@H](O)[C@@H]1O [Fructose-1,6-diphosphoric acid]", "4.1 percents"],
  ["NC(CS(=O)(=O)O)C(=O)O (racemic) [DL-cysteic acid]", "5.3 percents"],
  ["N[C@@H](CC(C(=O)O)C(=O)O)C(=O)O [γ-carboxyglutamic acid]", "13.1 percents"],
  ["CCC(NC(=O)CN)C(=O)O (racemic) [Glycyl-DL-aminobutyric acid, glycyl-DL-aminobutyric acid]", "11.0 percents"],
  ["O=C(O)CNc1ccccc1 [N--phenylglycine, N-phenylglycine]", "12.0 percents"],
  ["NC(Cc1ccccc1)C(=O)O (racemic) [DL-phenylalanine]", "6.6 percents"],
  ["NCCCCCC(=O)O [ε-aminocaproic acid]", "7.1 percents"],
  ["O=C[C@H](O)[C@@H](O)[C@H](O)[C@H](O)C(=O)O [Glucronic acid, glucuronic acid]", "5.5 percents"]
]}

----------
- assay_remarks: Rectal circulation with fatty acids as promoters (Example 15, Example 1 repeated)
- condition_label: Table 9; fatty acid 0.1 W/V %; Example 1 repeated; X 1
# medicine disappeared by absorption, Osmotic pressure X 1 annotations
measured_metric: medicine disappeared by absorption, Osmotic pressure X 1

{"columns": ["molecule", "measured_value"],
 "data": [
  ["CCCCCCCCCCCC(=O)[O-].[Na+] [Sodium laurate, sodium laurate]", "3.9 percents"],
  ["CCCCCCCC(=O)[O-].[Na+] [Sodium caprylate, sodium caprylate]", "5.8 percents"],
  ["CCCCCCCCCC(=O)[O-].[Na+] [Sodium caprate, sodium caprate]", "5.2 percents"],
  ["CCCCCC(=O)[O-].[Na+] [Sodium caproate, sodium caproate]", "10.4 percents"]
]}

----------
- assay_remarks: Rectal circulation: Cephalothin disappeared by absorption (Examples 10-14, 16-18)
- condition_label: rat, in vivo
measured_metric: Cephalothin disappeared by absorption, Osmotic pressure X 1 (percents)

{"columns": ["compound", "measured_value"],
 "data": [
  ["CC(=O)OCC1=C(C(=O)O)N2C(=O)[C@@H](NC(=O)Cc3cccs3)[C@H]2SC1 [Cephalothin.Na, reference compound]", 1.2],
  ["NCC(=O)NC(CC(=O)O)C(=O)O (racemic) [Glycyl-DL-aspartic acid, glycyl-DL-aspartic acid]", 8.6],
  ["O=S(=O)(O)c1cc(O)c(O)c(S(=O)(=O)O)c1 [DHBDS, 1,2-dihydroxybenzene-3,5-disulfonic acid]", 9.8],
  ["O=C[C@H](O)[C@@H](O)[C@@H](O)[C@H](O)C(=O)O [Galactronic acid, galacturonic acid]", 5.8],
  ["CN(C)[C@@H](Cc1ccccc1)C(=O)O [N--dimethylphenylalanine, N-dimethylphenylalanine]", 10.9]
]}
